- Tested on: PRMT1 (protein arginine N-methyltransferase 1)
- procedure.text: small molecules binding arginine methyltransferase PRMT1 – biochemical, small-molecule microarray, 635 nm fluorescence, primary screen (AID 1088);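 also: binding of Prmt1 protein to compounds spotted on small-molecule microarray slides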
- cond: higher = more signal
observed.property: composite z-score
Give bare numbers.

>>> print(df.to_string())
                              record_smiles  reported_value
0  O=C1C[C@@](C(=O)NCc2ccccc2)(c2ccc([N+](=O)[O-])cc2)[C@@H](c2ccc(CO)cc2)N1CC12CC3CC(CC(C3)C1)C2            1.54
1  CCCCC(=C=CC[C@H](O)c1cccc(OCCO)c1)C[C@H](O)c1ccccn1           0.483
2  C[N+](C)(C)CCCCCCNC(=O)[C@H]1C[C@H]2C(=O)N[C@@H](Cc3ccccc3)C(=O)N2[C@H]1c1cccc(OCCO)c1            1.15

Now for another entry.
Need composite z-score, item COCCOC(=O)N1C(=O)[C@@]2(c3cc(C#CCCO)ccc31)[C@H](c1ccc(OCCO)cc1)N1[C@H](c3ccccc3)[C@H](c3ccccc3)OC(=O)[C@H]1[C@@H]2C(N)=O
1.54
